experiment_description: basal MM1S mitochondrial membrane potential changes, profiling panel, cell-based, JC-1 fluorescence, 24 h, 100 nL compound (AID 1170); note: test concentration not given here
condition_parameters: higher = more signal
Some compounds, each annotated with its measured z-score.
Please state the value as a number alone, without comment.

For the compound CC=CC(O)C1C=CC2C(=O)N(c3ccccc3)C(=O)C2N1Nc1ccc([N+](=O)[O-])cc1 (stereo unspecified) , give its measured z-score value.
-1.01

Tell us which z-score value is on record for COc1ccc([Si](C)(C)[C@@H]2[C@@H](CCn3cc([C@H](O)c4ccccc4)nn3)O[C@]3(C(=O)N(Cc4ccc(N5CCOC5=O)cc4)c4ccccc43)[C@H]2C)cc1
-0.657

Supply measured z-score of C=CCOC(=O)[C@@H]1[C@H]2C(=O)O[C@H](c3ccccc3)[C@H](c3ccccc3)N2[C@H](c2ccc(OCCOC(=O)[C@H]3C[C@H]4C(=O)N[C@@H](CCCC[N+](C)(C)C)C(=O)N4[C@H]3c3ccc(O)cc3)cc2)[C@@]12C(=O)Nc1ccc(I)cc12 in your reply.
-1.13

Please give the documented z-score of O=C1OCCC=C[C@H]2OC34C=CCN(c5ccc(Cl)cc5)C(=O)[C@H]3N(CCCCCO)C(=O)[C@@H]4C12 (stereo partly specified)
0.0628

Determine its reported z-score: CC(C)(C)OC(=O)CC[C@]1(C(=O)NCCN2CCOCC2)N=C(c2ccc(OCCCO)cc2)O[C@H]1c1ccccc1N=[N+]=[N-]
-0.961

Could you please provide reported z-score for NC(N)=NCc1cn(CCc2c[nH]c3ccccc23)nn1 ? Thanks!
-0.77
